# study_system: Thermosynechococcus elongatus PKUAC-SCTE542 protoporphyrinogen IX oxidase CyPPO19 (SEQ ID NO: 1) variant R89A (MBP fusion) (Thermosynechococcus sichuanensis, UniProt A0A7D6JSC1, R89A)
# Sequence (A0A7D6JSC1 entry or part of it R89A): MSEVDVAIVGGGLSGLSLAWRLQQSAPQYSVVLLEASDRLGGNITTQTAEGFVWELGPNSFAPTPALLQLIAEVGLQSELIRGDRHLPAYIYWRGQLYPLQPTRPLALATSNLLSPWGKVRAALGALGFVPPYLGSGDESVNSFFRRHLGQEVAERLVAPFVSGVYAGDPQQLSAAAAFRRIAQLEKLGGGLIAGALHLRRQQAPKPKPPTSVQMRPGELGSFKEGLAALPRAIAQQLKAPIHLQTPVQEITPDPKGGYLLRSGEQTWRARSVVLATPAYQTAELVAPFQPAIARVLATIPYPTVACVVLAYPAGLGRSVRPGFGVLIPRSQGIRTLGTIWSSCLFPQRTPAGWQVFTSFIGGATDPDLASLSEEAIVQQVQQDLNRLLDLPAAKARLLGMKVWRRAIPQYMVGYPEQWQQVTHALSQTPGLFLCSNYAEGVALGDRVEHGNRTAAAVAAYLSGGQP
# assay: biochemical
# measurement_setup: CyPPO19 R89A; 50 μM protoporphyrinogen IX, pH 7.5, room temperature, 30 min
quantity_name: pIC50
Scale for pIC50: -log10 of concentration given in mol/L; no unit attached.

What measured pIC50 goes with Cc1nn(-c2cc(CC(Cl)C(=O)O)c(Cl)cc2F)c(=O)n1C(F)F (stereo not shown) ?
6.07

###

# study_system: Thermosynechococcus elongatus PKUAC-SCTE542 protoporphyrinogen IX oxidase CyPPO19 (SEQ ID NO: 1) variant A167C (MBP fusion) (Thermosynechococcus sichuanensis, UniProt A0A7D6JSC1, A167C)
# Sequence (A0A7D6JSC1 entry or part of it A167C): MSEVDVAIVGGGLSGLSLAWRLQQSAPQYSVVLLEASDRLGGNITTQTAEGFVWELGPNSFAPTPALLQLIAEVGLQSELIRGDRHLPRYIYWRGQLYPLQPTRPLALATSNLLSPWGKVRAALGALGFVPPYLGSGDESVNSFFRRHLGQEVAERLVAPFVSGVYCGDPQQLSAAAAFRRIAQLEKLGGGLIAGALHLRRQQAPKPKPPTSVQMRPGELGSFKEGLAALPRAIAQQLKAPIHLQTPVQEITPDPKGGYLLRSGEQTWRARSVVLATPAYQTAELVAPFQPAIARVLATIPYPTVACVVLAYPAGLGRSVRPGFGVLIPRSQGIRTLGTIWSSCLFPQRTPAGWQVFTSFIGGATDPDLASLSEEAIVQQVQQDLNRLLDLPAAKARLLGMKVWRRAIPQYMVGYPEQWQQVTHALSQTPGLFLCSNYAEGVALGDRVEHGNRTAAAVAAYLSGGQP
# assay: biochemical
quantity_name: pIC50
Scale for pIC50: -log10 of concentration given in mol/L; no unit attached.

What measured pIC50 goes with "CCOc1cc(Oc2ccc(C(F)(F)F)cc2Cl)ccc1[N+](=O)[O-]" ?
6.19

Next record, please: "CS(=O)(=O)NC(=O)c1cc(Oc2ccc(C(F)(F)F)cc2Cl)ccc1[N+](=O)[O-]"
6.07

Next record, please: COC(=O)CCNC(=O)C(C)Sc1cc(-n2c(=O)cc(C(F)(F)F)n(C)c2=O)c(F)cc1Cl (stereo not drawn)
6.47

###

Reported pIC50 values follow for various compounds
# study_system: Thermosynechococcus elongatus PKUAC-SCTE542 protoporphyrinogen IX oxidase CyPPO19 (SEQ ID NO: 1) variant V165S (MBP fusion) (Thermosynechococcus sichuanensis, UniProt A0A7D6JSC1, V165S)
# Sequence (A0A7D6JSC1 entry or part of it V165S): as the sequence (A0A7D6JSC1 entry or part of it R89A) above, with A89R, V165S counted along it
# assay: biochemical
# measurement_setup: 50 μM protoporphyrinogen IX, pH 7.5, room temperature, 30 min, 10,000 means equivalent to or higher, read-out: IC50
Scale for pIC50: -log10 of concentration given in mol/L; no unit attached.

• COC(=O)CCNC(=O)C(C)Sc1cc(-n2c(=O)cc(C(F)(F)F)n(C)c2=O)c(F)cc1Cl (stereo not drawn) [Tiafenacil] = 6.57
• CS(=O)(=O)NC(=O)c1cc(Oc2ccc(C(F)(F)F)cc2Cl)ccc1[N+](=O)[O-] [Fomesafen] = 6.46

Query compound follows.
What measured pIC50 goes with CCOc1cc(Oc2ccc(C(F)(F)F)cc2Cl)ccc1[N+](=O)[O-] [Oxyfluorfen] ?
5.78

###

# study_system: Thermosynechococcus vulcanus NIES-2134 protoporphyrinogen IX oxidase CyPPO18, wild type, SEQ ID NO: 3 (MBP fusion) (Thermosynechococcus vestitus)
# Sequence (Q8DLV2 entry or part of it): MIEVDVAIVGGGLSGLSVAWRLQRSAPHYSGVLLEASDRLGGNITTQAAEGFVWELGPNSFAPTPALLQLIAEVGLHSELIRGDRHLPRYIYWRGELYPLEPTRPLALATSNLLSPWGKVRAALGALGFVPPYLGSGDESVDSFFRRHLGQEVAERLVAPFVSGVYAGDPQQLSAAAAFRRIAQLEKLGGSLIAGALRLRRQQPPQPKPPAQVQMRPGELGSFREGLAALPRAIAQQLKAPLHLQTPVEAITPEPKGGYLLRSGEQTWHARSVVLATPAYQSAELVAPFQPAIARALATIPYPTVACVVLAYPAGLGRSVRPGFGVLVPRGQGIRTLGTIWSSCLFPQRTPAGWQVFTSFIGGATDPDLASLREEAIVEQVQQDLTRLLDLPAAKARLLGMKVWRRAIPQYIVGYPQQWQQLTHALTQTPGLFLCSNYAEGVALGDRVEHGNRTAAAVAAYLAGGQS
# measurement_setup: CyPPO18 WT; 50 μM protoporphyrinogen IX, pH 7.5, room temperature, 30 min
quantity_name: IC50 (nM)
Enter your answer as a number in nM; do not include the unit.

* Cc1nn(-c2cc(CC(Cl)C(=O)O)c(Cl)cc2F)c(=O)n1C(F)F (centres unmarked) [Carfentrazone] | 566

What measured IC50 goes with CCOc1cc(Oc2ccc(C(F)(F)F)cc2Cl)ccc1[N+](=O)[O-] [Oxyfluorfen] ?
103

###

Reported IC50 values follow for various molecules
# study_system: Thermosynechococcus vulcanus NIES-2134 protoporphyrinogen IX oxidase CyPPO18 (SEQ ID NO: 3) variant R89A (MBP fusion) (Thermosynechococcus vestitus, UniProt Q8DLV2, R89A)
# Sequence (Q8DLV2 entry or part of it R89A): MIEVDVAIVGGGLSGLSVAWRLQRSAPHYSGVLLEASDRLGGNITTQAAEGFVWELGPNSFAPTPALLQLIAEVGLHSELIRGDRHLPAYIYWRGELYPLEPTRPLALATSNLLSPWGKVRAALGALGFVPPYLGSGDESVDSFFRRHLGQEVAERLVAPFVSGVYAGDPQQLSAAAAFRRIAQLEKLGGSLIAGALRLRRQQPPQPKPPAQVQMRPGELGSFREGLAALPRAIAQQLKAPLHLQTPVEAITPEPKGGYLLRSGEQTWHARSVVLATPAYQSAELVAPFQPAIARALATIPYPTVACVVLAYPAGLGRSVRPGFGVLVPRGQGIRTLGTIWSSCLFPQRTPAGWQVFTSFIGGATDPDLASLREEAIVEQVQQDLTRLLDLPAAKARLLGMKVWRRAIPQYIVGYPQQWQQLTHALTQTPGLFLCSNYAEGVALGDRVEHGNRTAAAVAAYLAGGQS
# assay: PPO enzyme inhibition assay (IC50 for herbicides), CyPPO18 R89A fused to MBP
# measurement_setup: 50 μM protoporphyrinogen IX, pH 7.5, room temperature, 30 min
Write the quantity with the unit trailing the number.

- Cc1nn(-c2cc(CC(Cl)C(=O)O)c(Cl)cc2F)c(=O)n1C(F)F (centres unmarked): 872 nM

What measured IC50 goes with "CCOc1cc(Oc2ccc(C(F)(F)F)cc2Cl)ccc1[N+](=O)[O-]" ?
491 nM

###

# study_system: Thermosynechococcus vulcanus NIES-2134 protoporphyrinogen IX oxidase CyPPO18 (SEQ ID NO: 3) variant L327T (MBP fusion) (Thermosynechococcus vestitus, UniProt Q8DLV2, L327T)
# Sequence (Q8DLV2 entry or part of it L327T): as the sequence (Q8DLV2 entry or part of it R89A) above, with A89R, L327T counted along it
# assay: PPO enzyme inhibition assay (IC50 for herbicides), CyPPO18 L327T fused to MBP
# measurement_setup: 50 μM protoporphyrinogen IX, pH 7.5, room temperature, 30 min
quantity_name: IC50
Write the quantity with the unit trailing the number.

* Cc1nn(-c2cc(CC(Cl)C(=O)O)c(Cl)cc2F)c(=O)n1C(F)F (centres unmarked) | 0.723 µM

Query molecule follows.
What measured IC50 goes with "CCOc1cc(Oc2ccc(C(F)(F)F)cc2Cl)ccc1[N+](=O)[O-]" ?
3.6 µM

###

# study_system: Thermosynechococcus elongatus PKUAC-SCTE542 protoporphyrinogen IX oxidase CyPPO19 (SEQ ID NO: 1) variant V305M (MBP fusion) (Thermosynechococcus sichuanensis, UniProt A0A7D6JSC1, V305M)
# Sequence (A0A7D6JSC1 entry or part of it V305M): as the sequence (A0A7D6JSC1 entry or part of it R89A) above, with A89R, V305M counted along it
# assay: PPO enzyme inhibition assay (IC50 for herbicides), CyPPO19 V305M fused to MBP
# Assay type: biochemical
# measurement_setup: CyPPO19 V305M; 50 μM protoporphyrinogen IX, pH 7.5, room temperature, 30 min
quantity_name: IC50 (nM)
Enter your answer as a number in nM; do not include the unit.

What measured IC50 goes with Cc1nn(-c2cc(CC(Cl)C(=O)O)c(Cl)cc2F)c(=O)n1C(F)F (stereo not shown) ?
910

###

# study_system: Thermosynechococcus elongatus PKUAC-SCTE542 protoporphyrinogen IX oxidase CyPPO19 (SEQ ID NO: 1) variant V305L (MBP fusion) (Thermosynechococcus sichuanensis, UniProt A0A7D6JSC1, V305L)
# Sequence (A0A7D6JSC1 entry or part of it V305L): as the sequence (A0A7D6JSC1 entry or part of it R89A) above, with A89R, V305L counted along it
# assay: PPO enzyme inhibition assay (IC50 for herbicides), CyPPO19 V305L fused to MBP
# Type: biochemical
# measurement_setup: CyPPO19 V305L; 50 μM protoporphyrinogen IX, pH 7.5, room temperature, 30 min
quantity_name: IC50 (nM)
Enter your answer as a number in nM; do not include the unit.

What measured IC50 goes with Cc1nn(-c2cc(CC(Cl)C(=O)O)c(Cl)cc2F)c(=O)n1C(F)F (stereo not shown) ?
1330

###

Reported IC50 values follow for various compounds
# study_system: Thermosynechococcus elongatus PKUAC-SCTE542 protoporphyrinogen IX oxidase CyPPO19 (SEQ ID NO: 1) variant V165C (MBP fusion) (Thermosynechococcus sichuanensis, UniProt A0A7D6JSC1, V165C)
# Sequence (A0A7D6JSC1 entry or part of it V165C): as the sequence (A0A7D6JSC1 entry or part of it R89A) above, with A89R, V165C counted along it
# assay: PPO enzyme inhibition assay (IC50 for herbicides), CyPPO19 V165C fused to MBP
# Assay type: biochemical
Enter your answer as a number in nM; do not include the unit.

Use the examples below as a reference point.
- CCOc1cc(Oc2ccc(C(F)(F)F)cc2Cl)ccc1[N+](=O)[O-]: 3210
- COC(=O)CCNC(=O)C(C)Sc1cc(-n2c(=O)cc(C(F)(F)F)n(C)c2=O)c(F)cc1Cl (stereo not drawn): 186

What measured IC50 goes with "CS(=O)(=O)NC(=O)c1cc(Oc2ccc(C(F)(F)F)cc2Cl)ccc1[N+](=O)[O-]" ?
330

###

Reported IC50 values follow for various compounds
# study_system: Thermosynechococcus vulcanus NIES-2134 protoporphyrinogen IX oxidase CyPPO18 (SEQ ID NO: 3) variant A167C (MBP fusion) (Thermosynechococcus vestitus, UniProt Q8DLV2, A167C)
# Sequence (Q8DLV2 entry or part of it A167C): as the sequence (Q8DLV2 entry or part of it) above, with A167C counted along it
# assay: PPO enzyme inhibition assay (IC50 for herbicides), CyPPO18 A167C fused to MBP
# Format: biochemical
# measurement_setup: 50 μM protoporphyrinogen IX, pH 7.5, room temperature, 30 min

* CCOc1cc(Oc2ccc(C(F)(F)F)cc2Cl)ccc1[N+](=O)[O-] | 0.57 µM

Query compound follows.
What measured IC50 goes with Cc1nn(-c2cc(CC(Cl)C(=O)O)c(Cl)cc2F)c(=O)n1C(F)F (centres unmarked) ?
1.88 µM

###

# study_system: Thermosynechococcus elongatus PKUAC-SCTE542 protoporphyrinogen IX oxidase CyPPO19 (SEQ ID NO: 1) variant V165C (MBP fusion) (Thermosynechococcus sichuanensis, UniProt A0A7D6JSC1, V165C)
# assay: PPO enzyme inhibition assay (IC50 for herbicides), CyPPO19 V165C fused to MBP
# Format: biochemical
# measurement_setup: CyPPO19 V165C; 50 μM protoporphyrinogen IX, pH 7.5, room temperature, 30 min
quantity_name: IC50 (µM)
Enter your answer as a number in µM; do not include the unit.

What measured IC50 goes with Cc1nn(-c2cc(CC(Cl)C(=O)O)c(Cl)cc2F)c(=O)n1C(F)F (stereo not shown) ?
3.09

###

# study_system: Thermosynechococcus elongatus PKUAC-SCTE542 protoporphyrinogen IX oxidase CyPPO19 (SEQ ID NO: 1) variant V305L (MBP fusion) (Thermosynechococcus sichuanensis, UniProt A0A7D6JSC1, V305L)
# assay: PPO enzyme inhibition assay (IC50 for herbicides), CyPPO19 V305L fused to MBP
# Type: biochemical
quantity_name: pIC50
Scale for pIC50: -log10 of concentration given in mol/L; no unit attached.

Use the examples below as a reference point.
- COC(=O)CCNC(=O)C(C)Sc1cc(-n2c(=O)cc(C(F)(F)F)n(C)c2=O)c(F)cc1Cl (stereo not drawn): 5.95
- CS(=O)(=O)NC(=O)c1cc(Oc2ccc(C(F)(F)F)cc2Cl)ccc1[N+](=O)[O-]: 6.33

What measured pIC50 goes with "CCOc1cc(Oc2ccc(C(F)(F)F)cc2Cl)ccc1[N+](=O)[O-]" ?
6.10

Values compiled from patent US12698507B2.
